# protocolDescription: qHTS Screen of the MIPE 4.0 Collection Against Ewings Sarcoma (EW8) (AID 1259255); note: nearly all actives have a fitted effect of over 35% in size;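 for viability: 100% = DMSO-treated cells and 0% = medium-only wells without cells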
# experimentalConditions: EW8 Ewing sarcoma viability, CellTiter-Glo, 48 h; series mostly up to 45.8 µM
# Description: There is a large unmet medical need for treatments for Ewing sarcoma, a pediatric sarcoma. […] Using the NCATS developed oncology compound library called the Mechanism of Interrogation Plate (MIPE), four Ewing sarcoma cell lines were evaluated (TC32, TC71, RDES, EW8). Compounds, in a 12-point titration series, were incubated with cells for 48 hours and the read out was cell viability (CellTiter-Glo from Promega). […]
Records with an inconclusive call do not appear. Active and inactive are the calls of the source. Calls come from the whole dose curve; as a rule, active = well fitted inhibition curve with a large enough effect; inconclusive = small, poorly fitted or top-dose-only effect; inactive = no such curve, though single readings can be large or run the other way.
Outcomes: YES (active), NO (inactive)

compoundSmiles: CCNC(=O)Nc1ccc(Oc2ncnc(N)c2C=NOC)cc1Cl
assignedLabel: YES
--
compoundSmiles: CCN1CCC(n2cc(CNc3cc(Cl)c4ncc(C#N)c(Nc5ccc(F)c(Cl)c5)c4c3)nn2)CC1
assignedLabel: YES
--
compoundSmiles: O=C1C(c2c(O)[nH]c3ccccc23)=Nc2ccccc21
assignedLabel: YES
--
compoundSmiles: O=C(O)CCNc1cc(N2CCc3ccccc3CC2)nc(-c2ccccn2)n1
assignedLabel: NO
--
compoundSmiles: Nc1ccn([C@@H]2O[C@H](CO)[C@@H](O)[C@H]2O)c(=O)n1
assignedLabel: YES
--
compoundSmiles: CC(=O)OCC(=O)[C@@]1(O)CC[C@H]2[C@@H]3CCC4=CC(=O)C=C[C@]4(C)[C@@H]3[C@@H](O)C[C@@]21C
assignedLabel: NO
--
compoundSmiles: Cc1cccc2c1CC[C@H](CN1CCC(c3c(Cl)cccc3Cl)CC1)C[C@@H]2O
assignedLabel: YES
--
compoundSmiles: COc1cc([C@H]2Oc3cc([C@H]4Oc5cc(O)cc(O)c5C(=O)[C@H]4O)ccc3O[C@H]2CO)ccc1O
assignedLabel: YES
--
compoundSmiles: OC[C@H]1O[C@@H](O[C@H]2[C@@H](O)[C@@](O)(CO)O[C@@H]2CO)[C@H](O)[C@@H](O)[C@@H]1O
assignedLabel: NO

====

# testedOn: Mitogen-activated protein kinase 10 (Mus musculus) (UniProt Q61831)
# protocolDescription: JNK3 AlphaScreen Assay (AID 530);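 note: kinase came from lysate of stimulated human HepG2 cells; signal reports phosphorylation of biotinylated GST-cJun 1-79 at Ser73 with 10 µM ATP; % is set by controls: 0 for no effect and ±100 for the full control effect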
# experimentalConditions: JNK3 lysate, c-Jun phosphorylation; series mostly up to 25.6 µM
# Description: NIH Chemical Genomics Center [NCGC] NIH Molecular Libraries Screening Centers Network [MLSCN] The c-jun N-terminal kinase (JNK) family are serine/threonine protein kinases that phosphorylate c-jun, a component of the transcription factor protein-1 (AP-1). […] A homogeneous AlphaScreen is developed to measure the activity of JNK3. […] The phosphorylation of a biotinylated c-jun substrate by JNK3 can be detected with an antibody raised against phosphorylated c-jun. […]
Inconclusive results are not listed. Activity calls are given as the source filed them. Calls come from the whole dose curve; as a rule, active = well fitted curve in either direction with a large enough effect (not every such curve was filed as active); inconclusive = small, poorly fitted or top-dose-only effect, or another doubt; inactive = flat fitted curve, though single readings scatter.
observable: outcome

compound: CC1C(=O)OC2C(O)C34C5CC(C(C)(C)C)C36C(OC(=O)C6O)OC4(C(=O)O5)C12O (stereo not given)
observable: outcome
resultValue: inactive
--
compound: Cc1ccc(NC(=O)c2cccc(N(C)C)c2)cc1NC(=O)c1ccc(O)cc1
observable: outcome
resultValue: inactive
--
compound: CN[C@H]1[C@@H](O[C@@H]2[C@H](O[C@@H]3[C@@H](O)[C@@H](O)[C@@H](N=C(N)N)[C@@H](O)[C@@H]3N=C(N)N)O[C@H](C)[C@@]2(O)C=O)O[C@@H](CO)[C@@H](O)[C@H]1O
observable: outcome
resultValue: inactive
--
compound: C=C1c2cccc(O)c2C(O)=C2C(=O)[C@@]3(O)C(O)=C(C(N)=O)C(=O)[C@@H](N(C)C)[C@@H]3[C@@H](O)[C@H]12
observable: outcome
resultValue: inactive
--
compound: NS(=O)(=O)c1cc(Cl)c(Cl)c(S(N)(=O)=O)c1
observable: outcome
resultValue: inactive
--
compound: CCC(=C(CC)c1ccc(O)cc1)c1ccc(O)cc1
observable: outcome
resultValue: inactive
--
compound: NC(=O)c1nnn(Cc2cc(Cl)c(C(=O)c3ccc(Cl)cc3)c(Cl)c2)c1N
observable: outcome
resultValue: inactive
--
compound: CCCCC(C=O)NC(=O)C(CC(C)C)NC(=O)OCc1ccccc1 (stereo not given)
observable: outcome
resultValue: inactive
--
compound: O=S(=O)(O)c1ccc2cc(N=Nc3cc(S(=O)(=O)O)c4cccnc4c3O)ccc2c1
observable: outcome
resultValue: inactive
--
compound: CN1CCN2c3ncccc3Cc3ccccc3C2C1 (stereo not given)
observable: outcome
resultValue: inactive

====

# testedOn: Phenylethanolamine N-methyltransferase (Homo sapiens)
# protocolDescription: Confirmatory Screen for Target Class Profiling of Small Molecule Inhibitors of Methyltransferases (AID 1745852)
# experimentalConditions: MTase-Glo luminescence, SAH detection, recombinant enzyme; measured here: PNMT max response; stronger effect = lower value

compoundSmiles: CCN1CCC(n2cc(CNc3cc(Cl)c4ncc(C#N)c(Nc5ccc(F)c(Cl)c5)c4c3)nn2)CC1
testedOn: Phenylethanolamine N-methyltransferase (Homo sapiens)
activity, %: -91.4
//
compoundSmiles: CC1(COc2ccc3c(c2)ncn3-c2ccc3cccc(N4CCC(N)CC4)c3n2)COC1
testedOn: Phenylethanolamine N-methyltransferase (Homo sapiens)
activity, %: -30.6
//
compoundSmiles: Cc1ccccc1-n1c(Cn2nc(-c3cccc(O)c3)c3c(N)ncnc32)nc2cccc(C)c2c1=O
testedOn: Phenylethanolamine N-methyltransferase (Homo sapiens)
activity, %: 1.94

====

# protocolDescription: S16 Schwann cell PMP22 intronic element beta-lactamase assay (AID 624044);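 note: 0% = DMSO and -100% = potassium clavulanate positive control; nearly all actives have a fitted effect of over 15% in size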
# experimentalConditions: S16 rat Schwann cells, PMP22 element beta-lactamase FRET, 24 h; series mostly up to 38.3 µM
Inconclusive results are not listed. The source made the active and inactive calls. The call rests on the fitted dose curve.

compound: N#Cc1c(N(CC(=O)O)CC(=O)O)sc(C(=O)O)c1CC(=O)O
outcome: inactive

compound: N#CC(c1ccc(Cl)cc1)c1c(Cl)cc(-n2ncc(=O)[nH]c2=O)cc1Cl (stereo not drawn)
outcome: inactive

compound: CN1CCN2c3ncccc3Cc3ccccc3C2C1 (stereo not drawn)
outcome: inactive

====

# protocolDescription: qHTS drug screen for cell cycle checkpoint inhibitors in PARPi-resistant BRCA-mutant ovarian cancer cell lines. (AID 1963452)
# experimentalConditions: PEO1/OlaR viability, CellTiter-Glo luminescence, 96 h; stronger effect = lower value
Categorize each record by its Z-AUC using bucket A = under -0.2, bucket B = from -0.2 up to 0.6, bucket C = 0.6 and over

molecule: CN1CCN(c2cccc(Nc3nc4c(-c5ccc(S(C)(=O)=O)cc5)cccn4n3)c2)CC1
assignedLabel: bucket B
--
molecule: CNC1CCC(N(Cc2cccc(-c3ccncc3)c2)C(=O)c2sc3ccccc3c2Cl)CC1 (stereo not given)
assignedLabel: bucket B
--
molecule: Cc1ccc(S(=O)(=O)OCC(=O)Nc2ccc(C(=O)O)c(O)c2)cc1
assignedLabel: bucket C
--
molecule: Cc1ccc(C2=Nc3ccc(Cl)cc3OC2)cc1
assignedLabel: bucket C
--
molecule: CN1CC(=O)NC1=NC(=O)Nc1cccc(Cl)c1
assignedLabel: bucket C
--
molecule: c1ccc(CNc2nc(N3CCOc4ccccc43)nc3c2CCCC3)cc1
assignedLabel: bucket B
--
molecule: CCCCOCCOc1nc(-c2ccc(C(=O)O)c(F)c2)sc1C
assignedLabel: bucket C
--
molecule: O=C(Nc1cccc(Cl)c1)Nc1ncc(CCNc2ncnc3ccsc23)s1
assignedLabel: bucket A
--
molecule: Cc1ccccc1-n1c(Cn2nc(-c3cccc(O)c3)c3c(N)ncnc32)nc2cccc(C)c2c1=O
assignedLabel: bucket A
--
molecule: N#CC(c1ccc(Cl)cc1)c1c(Cl)cc(-n2ncc(=O)[nH]c2=O)cc1Cl (stereo not given)
assignedLabel: bucket A
--
molecule: CSc1cccc(Nc2ncc3cc(-c4c(Cl)cccc4Cl)c(=O)n(C)c3n2)c1
assignedLabel: bucket B
--
molecule: O=C1CN2Cc3c(ccc(Cl)c3Cl)N=C2N1
assignedLabel: bucket A
--
molecule: Nc1[nH]nc2nnc(-c3c(-c4ccccc4)nn4ccccc34)cc12
assignedLabel: bucket A
--
molecule: Cn1c(=O)c(Oc2ccc(F)cc2F)cc2cnc(NC3CCOCC3)nc21
assignedLabel: bucket C
--
molecule: COc1ccc(-c2nc3ccc(C4=NNC(=O)CC4C)cc3[nH]2)cc1 (stereo not given)
assignedLabel: bucket A
--
molecule: CCN(CC)CCCCNc1nc2cc(Cl)c(Cl)cc2nc1-c1ccc(-c2cccs2)s1
assignedLabel: bucket C
--
molecule: CCN1CCC(n2cc(CNc3cc(Cl)c4ncc(C#N)c(Nc5ccc(F)c(Cl)c5)c4c3)nn2)CC1
assignedLabel: bucket A
--
molecule: Cc1ccc(NC(=O)c2cccc(N(C)C)c2)cc1NC(=O)c1ccc(O)cc1
assignedLabel: bucket C
--
molecule: Cc1cc(OCCCS(C)(=O)=O)cc(C)c1-c1cccc(COc2ccc3c(c2)OC[C@H]3CC(=O)O)c1
assignedLabel: bucket B
--
molecule: Cn1cc(-c2ccc3nnc(Sc4ccc5ncccc5c4)n3n2)cn1
assignedLabel: bucket C
--
molecule: CCC(C)SSc1ncc[nH]1 (stereo not given)
assignedLabel: bucket A
--
molecule: C[C@@H]1C[C@H]2[C@@H]3CCC4=CC(=O)C=C[C@]4(C)[C@@]3(F)[C@@H](O)C[C@]2(C)[C@@]1(O)C(=O)CO
assignedLabel: bucket B
--
molecule: C=C1c2cccc(O)c2C(O)=C2C(=O)[C@@]3(O)C(O)=C(C(N)=O)C(=O)[C@@H](N(C)C)[C@@H]3[C@@H](O)[C@H]12
assignedLabel: bucket B
--
molecule: CN1CCc2c(n(Cc3ccc(C(=O)NO)cc3)c3ccccc23)C1
assignedLabel: bucket C
--
molecule: CC(C)C[C@@H](C(=O)N[C@H](C(=O)OC1CCCC1)c1ccccc1)[C@H](O)C(=O)NO
assignedLabel: bucket A
--
molecule: CN(C)CCN(C)C(=O)c1ccc(NC(=O)Nc2ccc(-c3nc(N4CCOCC4)c4ccn(CC(F)(F)F)c4n3)cc2)cc1
assignedLabel: bucket A
--
molecule: COc1cc2ncn(-c3cc(OCc4ccccc4S(C)(=O)=O)c(C#N)s3)c2cc1OC
assignedLabel: bucket C
--
molecule: O=C(NCCCCN1CCOCC1)c1cc2ccccc2o1
assignedLabel: bucket C
--
molecule: CCC(=O)NCC[C@@H]1CCc2ccc3c(c21)CCO3
assignedLabel: bucket A
--
molecule: Cc1cc(NC(=O)Nc2ccc(N(C)C)cc2)c2cc(F)cc(F)c2n1
assignedLabel: bucket B
--
molecule: OC1CCC(Nc2ncc3nc(Nc4c(F)cc(F)cc4F)n([C@@H]4CCOC4)c3n2)CC1 (stereo not given in full)
assignedLabel: bucket B
--
molecule: COc1cc2c(cc1Cc1cccc(Cl)c1F)c(=O)c(C(=O)O)cn2[C@H](CO)C(C)C
assignedLabel: bucket C
--
molecule: C[C@@H](NC(=O)c1ncnc(N)c1Cl)c1ncc(C(=O)Nc2cc(C(F)(F)F)c(Cl)cn2)s1
assignedLabel: bucket B
--
molecule: CN(C)CCOc1cc(-c2cn[nH]c2)ccc1NC(=O)C1COc2ccccc2O1 (stereo not given)
assignedLabel: bucket C
--
molecule: N#Cc1ccc(Oc2ccc3c(c2)COB3O)cc1
assignedLabel: bucket B
--
molecule: N#CC1(c2cccc(C(=O)Nc3cc(Oc4ccc5nc(NC(=O)C6CC6)sc5n4)ccc3F)c2Cl)CC1
assignedLabel: bucket A
--
molecule: C[C@H](c1ccc(F)cc1CCCC(=O)O)N(c1cc(F)ccc1F)S(=O)(=O)c1ccc(Cl)cc1
assignedLabel: bucket A
--
molecule: N#CC(c1ccnc(NCCc2cccnc2)n1)c1nc2ccccc2s1 (stereo not given)
assignedLabel: bucket C
--
molecule: O=C(O)c1ccc(O)c2ncc(N3CCOCC3)cc12
assignedLabel: bucket B
--
molecule: CNC(=O)[C@H](Cc1ccccc1)NC(=O)[C@H](CC(C)C)[C@H](CSc1cccs1)C(=O)NO
assignedLabel: bucket B
